Values were extracted from paper PMC5540273.

Tested on: YANK2;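 note: KINOMEscan kinase panel screen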
Construct: gene STK32B
Conditions: concentration: 1 μM,replicates: in singlicate; n = 1

| COMPOUND | %Inh (%) |
| --- | --- |
| C[C@@H](Oc1cc(-n2cnc3ccc(-c4ccncc4)cc32)sc1C(N)=O)c1ccccc1Cl [GSK483724] | 1 |
| CCn1c(-c2nonc2N)nc2cncc(CNC3CCNCC3)c21.Cl [SB-747651] | 0 |
| COc1ccc(Nc2nccc(N3CCC(NC(=O)c4cccc(C#N)c4)C3)n2)cc1 (stereo not shown) [GSK1379730] | 0 |
| COC(=O)Nc1nc2cc(Oc3ccc(NC(=O)Nc4cc(C(F)(F)F)ccc4Cl)cc3)ccc2[nH]1.Cl [GW697465] | 0 |
| FC(F)(F)c1cc(Br)cc(Nc2nccc(-c3cnn4ncccc34)n2)c1 [GW810578] | 0 |
| CC(C(=O)NC1CCN(c2ccnc(Nc3ccc(F)cc3)n2)C1)c1ccc(Cl)cc1 (stereo not shown) [GSK1379713] | 0 |
| CN1CCN(CCNc2nc3cc(Oc4ccc(NC(=O)Nc5cc(C(F)(F)F)ccc5F)cc4)ccc3[nH]2)CC1.Cl.Cl [GW768504] | 0 |
| CC(=O)Nc1ccc(-c2cc3ncnc(SCC(=O)O)c3s2)cc1 | 0 |
| CS(=O)(=O)Nc1ccc(-c2ccnc3[nH]ccc23)cc1 [GSK993273] | 0 |
| O=C(Nc1ccc(Oc2ccc3nc(NC(=O)C4CC4)cn3n2)c(F)c1)c1cccn(-c2ccccc2)c1=O | 0 |
| CN(c1ccccc1CNc1nc(Nc2ccc3c(c2)CC(=O)N3)ncc1C(F)(F)F)S(C)(=O)=O | 0 |
| O=C(NCC1CC1)c1ccc(-c2cc(C(=O)NC3CC3)ccc2F)cc1 [GW810445] | 0 |
| COc1cccc(OC)c1C(=O)Nc1cccc(-c2nn3ccccc3c2-c2ccnc(Nc3cccc(F)c3)n2)c1 [GSK361065] | 11 |
| COC(=O)c1cccc(NC(=O)NC2CCN(c3ccnc(NCc4ccc(F)cc4)n3)CC2)c1 [GSK1379860] | 0 |
| C[C@@H]1CNc2c(sc3ccc4nc(-c5ccc(O)cc5)ccc4c23)C(=O)N1 | 9 |
| CNC(=O)c1ccccc1Nc1nc(Nc2cccc(CS(C)(=O)=O)c2)ncc1C.O=CO [GSK1520489] | 0 |
| CC(=O)c1c(-c2ccncc2)[nH]c(-c2ccncc2)c1C [GW493036] | 0 |
| Cn1ccc2ncnc(Oc3ccc(NC(=O)Nc4cc(C(C)(C)C)on4)c(Cl)c3)c21 | 5 |
| CN(c1cccc(CNc2nc(Nc3ccc4c(c3)CC(=O)N4)ncc2C(F)(F)F)c1)S(C)(=O)=O | 0 |
| COc1cc2nccc(Nc3ccc(Oc4ccccc4)cc3)c2cc1OC.Cl [GI261656] | 0 |
| COc1cc(Nc2nccc(N3CCC(NC(=O)c4cccc(C#N)c4)C3)n2)cc(OC)c1OC (stereo not shown) [GSK1379751] | 0 |
| Cn1ccc2ncnc(Oc3ccc(NC(=O)Nc4cnn(C(C)(C)C)c4)c(Cl)c3)c21 | 11 |
| c1ccc(Oc2ccc(Nc3ccnc4ccc(-c5ccccn5)cc34)cc2)cc1 [GW407034] | 0 |
| CS(=O)(=O)c1cccc(CNc2nc(Nc3ccc4c(c3)[C@@H]3C[C@@H]4CNC3=O)ncc2C(F)(F)F)c1 | 0 |
| CSc1nccc(-c2c(-c3ccc(F)cc3)ncn2CCCN2CCOCC2)n1.Cl [SB-217146] | 0 |
| C[C@@H](Oc1cc(-n2cnc3cc(-c4ccncc4)ccc32)sc1C(N)=O)c1ccccc1Cl [GSK479719] | 0 |
| Cn1cc(-c2cccc3c(N)c(C(N)=O)nnc23)cn1 | 0 |
| O=C(NOCC1CC1)c1cc(Br)c(F)c(F)c1Nc1ccc(I)cc1Cl | 0 |
| CC(C)c1nc(-c2cccc(NS(=O)(=O)c3ccccc3)c2)c(-c2ccnc(Nc3ccc4c(c3)CN(C)CC4)n2)s1 [GSK1649598] | 28 |
| CC(C)S(=O)(=O)N1CCN(Cc2ccc3c(c2)nc(NC(=O)c2ccsc2)n3C[C@H](O)c2ccccc2)CC1 [GW635815] | 0 |
| C[C@@H]1CNc2c(sc3ccc4nc(-c5ccncc5)ccc4c23)C(=O)N1 | 0 |
| N#Cc1cccc(C(=O)NC2CCN(c3ccnc(Nc4ccc(F)cc4)n3)C2)c1 (stereo not shown) [GSK1379708] | 0 |
| NC(=O)Nc1sc(-c2ccc(F)cc2)cc1C(N)=O [GW789449] | 0 |
| Cc1ccc(CC(=O)N2CCc3cc(-c4cn(C)c5ncnc(N)c45)ccc32)cc1 [GSK2634758] | 0 |
